TESTED ON: Polyunsaturated fatty acid 5-lipoxygenase (Rattus norvegicus, UniProt P12527)
Sequence (P12527 whole entry): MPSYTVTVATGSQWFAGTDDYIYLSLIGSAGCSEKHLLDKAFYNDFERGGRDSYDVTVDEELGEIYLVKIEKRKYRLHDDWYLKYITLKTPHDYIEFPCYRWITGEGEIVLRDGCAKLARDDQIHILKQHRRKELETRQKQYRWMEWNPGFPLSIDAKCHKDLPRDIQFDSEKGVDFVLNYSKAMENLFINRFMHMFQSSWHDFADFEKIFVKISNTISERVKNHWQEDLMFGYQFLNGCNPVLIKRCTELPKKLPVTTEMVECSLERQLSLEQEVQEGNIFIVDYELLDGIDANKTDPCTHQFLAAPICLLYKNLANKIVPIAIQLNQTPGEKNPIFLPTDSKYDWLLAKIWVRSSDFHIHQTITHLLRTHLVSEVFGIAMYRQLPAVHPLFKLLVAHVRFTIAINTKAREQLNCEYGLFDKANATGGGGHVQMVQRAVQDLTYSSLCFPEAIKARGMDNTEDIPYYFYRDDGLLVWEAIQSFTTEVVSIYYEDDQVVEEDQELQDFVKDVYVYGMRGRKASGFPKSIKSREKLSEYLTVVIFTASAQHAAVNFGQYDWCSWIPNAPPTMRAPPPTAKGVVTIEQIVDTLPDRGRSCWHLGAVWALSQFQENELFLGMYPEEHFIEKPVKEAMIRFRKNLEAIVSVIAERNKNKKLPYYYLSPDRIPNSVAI
OBSERVATION TYPE: IC50

{"STRUCTURE AS SMILES": "CC(C)(C)c1cc(/C=C/c2nnc(S)o2)cc(C(C)(C)C)c1O", "RESULT": "0.58 µM"}
{"STRUCTURE AS SMILES": "CSc1nnc(-c2cc(C(C)(C)C)c(O)c(C(C)(C)C)c2)s1", "RESULT": "1.2 µM"}
{"STRUCTURE AS SMILES": "CC(C)(C)c1cc(-c2n[nH]c(N)n2)cc(C(C)(C)C)c1O", "RESULT": "5.1 µM"}
{"STRUCTURE AS SMILES": "CC(C)(C)c1cc(-c2n[nH]c(S)n2)cc(C(C)(C)C)c1O", "RESULT": "11 µM"}
